- Tested on: SNB-75 CNS
- assayExplanation: NCI tumour cell line growth inhibition, 48 h
parameterMeasured: TGI

Form field: reported TGI of `COc1c(O)c2c3c(cc(C)cc3c1C(C)C)OC2` > 100 µM

Same lookup for Cc1csc(NC23CC4CC(CC(C4)C2)C3)[n+]1C(P(=O)([O-])O)P(=O)(O)O (stereo not given) , please. > 100 µM

Same lookup for `C[n+]1cccc2c(=O)c3ccccc3oc21` , please. > 100 µM

Same lookup for `O=[N+]([O-])c1ccc(-n2nnc(C3=NCCN3)c2-c2ccccc2)cc1` , please. > 100 µM

Same lookup for `COc1ccc2c(c1)c(CC(=O)[Se]C)c(C)n2C(=O)c1ccc(Cl)cc1` , please. > 0.238 µM

====

Provide the reported TGI of each item.
- Test system: MCF7 breast
- assayExplanation: NCI tumour cell line growth inhibition, 48 h

Form field: reported TGI of OCC(O)C(O)C(O)C(O)c1nc2ccc(Cl)cc2[nH]1 (centres undefined) > 100 µM

Same lookup for O=C(C/C(=N/O)C(=O)NC1=C(Cl)C(=O)c2ccccc2C1=O)CC(c1ccccc1)c1c(O)c2ccccc2oc1=O (centres undefined) , please. 26.8 µM

Same lookup for `COc1ccc(CCN2CC=Cn3c2nc2ccccc2c3=O)cc1` , please. > 43 µM

Same lookup for CC1C(=O)N(c2ccccc2)NC12CCCc1ccccc12 (centres undefined) , please. > 100 µM

====

- Test system: K-562 leukemia
- assayExplanation: NCI tumour cell line growth inhibition, 48 h
Provide the reported TGI of each item.

Form field: reported TGI of `CSC1=C(N)C(=O)c2[nH]cc(CO)c2C1=N` 0.534 µM

Same lookup for `COc1ccc(/C=C/c2cc(OC)c(OC)c(OC)c2)cc1` , please. > 100 µM

Same lookup for `C/C(O)=C(/C=N/C(=S)Nc1ccc(S(N)(=O)=O)cc1)C(=O)Nc1ccccc1C` , please. > 100 µM

Same lookup for `CC(=O)[CH-]C(=O)c1ccccc1.CC(=O)[CH-]C(=O)c1ccccc1.CC[O-].CC[O-].[Hf+4]` , please. > 100 µM

Same lookup for `COc1ccc2c(c1)c(CC(=O)[Se]C)c(C)n2C(=O)c1ccc(Cl)cc1` , please. > 1 µM

Same lookup for `COc1cc2nc(N3CCCC3)nc(NCc3ccccc3)c2cc1OC` , please. 6.02 µM

Same lookup for COC(=O)C1CCC(=S)N1C(=O)c1ccccc1 (centres undefined) , please. > 100 µM

Same lookup for `CC(=O)Nc1ccc(S(=O)(=O)N/N=C/CN2C(=O)c3ccccc3C2=O)cc1` , please. > 100 µM

Same lookup for `O=C1CCCCC/C1=C\c1ccc([N+](=O)[O-])cc1` , please. > 100 µM

Same lookup for C=C1C(O)C2C(=C(CC)C13CC3)C(=O)C(C)(C)C2OC (centres undefined) , please. > 100 µM

Same lookup for O=C(c1ccc(Cl)cc1Cl)C1[C@H]2C(=O)N(c3ccc(Cc4ccc(N5C(=O)[C@@H]6ON(c7ccccc7)C(C(=O)c7ccc(Cl)cc7Cl)[C@@H]6C5=O)cc4)cc3)C(=O)[C@H]2ON1c1ccccc1 (some centres undefined) , please. > 50 µM

Same lookup for `COc1cc(OC)c2nc(C)c3c(c2c1)SCC3` , please. > 100 µM

Same lookup for `O=C1Nc2ccc(Br)cc2C1=Nc1cccnc1` , please. 52.7 µM

Same lookup for `ClCCCc1ccccc1C1=NCCc2ccccc21` , please. > 100 µM

Same lookup for `CN1CCN(C(=O)C(C)(C)c2ccc(C(=O)Nc3cn4cc(-c5ccncc5)ccc4n3)cc2)CC1` , please. > 100 µM

Same lookup for `OC1(c2ccccc2)CCN(Cc2c[nH]c3ccccc23)CC1` , please. > 100 µM

Same lookup for `O=C(NCCCCCCCCCCCCNC(=O)Nc1cccc2ccccc12)Nc1cccc2ccccc12` , please. 50.5 µM

Same lookup for `COc1cccc(-c2c[nH]c3c(N/N=C/c4ccncc4)ncnc23)c1` , please. > 25 µM

Same lookup for `Cc1[nH]c2ccccc2c1CCCO` , please. > 100 µM

Same lookup for `C=C(C(N)=O)c1ccc([N+](=O)[O-])o1` , please. 26 µM

Same lookup for `O=C1C(c2ccccc2)=C(O)c2cccc3cccc1c23` , please. > 100 µM

Same lookup for `CC(C)=NN/C(=N\S(=O)(=O)c1ccc(Oc2cccc(Cl)c2C#N)cc1)Nc1ccc(Cl)cc1` , please. > 100 µM

Same lookup for C=C/C(C)=C\CC1[C@](C)(O)CC[C@H]2C(C)(C)C(=O)CC[C@]12C (some centres undefined) , please. > 100 µM

Same lookup for CC(C)CCCC(C)[C@H]1CCC2[C@@H]3CCC4Cc5nc6c(nc5C[C@]4(C)C3CC[C@@]21C)CC1CC[C@@H]2C(CC[C@@]3(C)C2CC[C@@H]3C(C)CCCC(C)C)[C@@]1(C)C6 (some centres undefined) , please. > 100 µM

====

- Test system: HCC-2998 colon
- assayExplanation: NCI tumour cell line growth inhibition, 48 h
parameterMeasured: TGI

Form field: reported TGI of Nc1ncnc2c1N=C(c1ccc3c(c1)OCO3)CC(c1ccc([N+](=O)[O-])cc1)N2 (stereo not drawn) > 100 µM

Same lookup for Cc1csc(NC23CC4CC(CC(C4)C2)C3)[n+]1C(P(=O)([O-])O)P(=O)(O)O (stereo not drawn) , please. > 100 µM

Same lookup for C[C@H](NC(=O)C(Cc1ccccc1)(Cc1ccc(O)cn1)NC(=O)c1ccccc1)c1ccccc1 (stereo partly drawn) , please. 30.8 µM

Same lookup for Cc1ccccc1OCC(O)CN1CCN(c2ccc(Cl)cc2)CC1 (stereo not drawn) , please. 31.6 µM

Same lookup for OC(CCNC12CC3CC(CC(C3)C1)C2)c1ccccc1 (stereo not drawn) , please. > 100 µM

Same lookup for O=C1C=CC(=O)C2=C1[C@@H](O)C1CC=CC3C(=O)O[C@@H]2C31 (stereo partly drawn) , please. 34.6 µM

Same lookup for `CC(=O)Nc1ccc(S(=O)(=O)N/N=C/CN2C(=O)c3ccccc3C2=O)cc1` , please. > 100 µM

Same lookup for `COc1cc2nc(N3CCCC3)nc(NCc3ccccc3)c2cc1OC` , please. 4.25 µM

Same lookup for `O=C(Nc1ccc(Br)cc1F)c1cc(I)ccc1O` , please. 12.7 µM

Same lookup for `O=S(=O)(/C=C/c1ccc(F)cc1)Cc1ccc(CS(=O)(=O)/C=C/c2ccc(F)cc2)cc1` , please. > 100 µM

Same lookup for `CCNCCCn1c2c(c3ccc(Cl)cc3c1=O)C(=O)c1cc(OC)cnc1-2` , please. 2.99 µM

Same lookup for `COc1cccc(CCN2CCN(CCCc3ccccc3)CC2)c1` , please. > 100 µM

Same lookup for `CSc1nnc(CCC(=O)Nc2c(C)cccc2C)o1` , please. > 100 µM

Same lookup for CCOC(=O)CCC(NC(=O)OCc1ccccc1)C(=O)NC(CCC(=O)OCC)C(=O)NC(CCC(=O)OCC)C(=O)NC(CCC(=O)OCC)C(=O)NC(CCC(=O)OCC)C(=O)NC(CCC(=O)OCC)C(=O)NC(CCC(=O)OCC)C(=O)OCC (stereo not drawn) , please. 53.8 µM

Same lookup for `CCOc1ccc(N/C(=C(/C(Cl)=C(/Cl)N(CC)CC)[N+](=O)[O-])n2nnc3ccccc32)cc1` , please. > 100 µM

Same lookup for `N#C/C(=C\c1ccsc1)c1nc2ccccc2o1` , please. > 100 µM

Same lookup for `O=C(O)CC[C@H](NC(=O)c1ccc(-n2nc3ccc(O)cc3nc2=O)cc1)C(=O)O` , please. > 100 µM

Same lookup for `C[C@@]12CCC(=O)c3coc(c31)C(=O)c1cc3c(cc12)C(=O)C=CC3=O` , please. > 100 µM

====

Provide the reported TGI of each item.
- Tested on: UACC-62 melanoma
- assayExplanation: NCI tumour cell line growth inhibition, 48 h

Form field: reported TGI of `CC(=O)Nc1ccc(S(=O)(=O)N/N=C/CN2C(=O)c3ccccc3C2=O)cc1` > 100 µM

Same lookup for COc1ccc(CC(N)c2ccc(OC)cc2)cc1 (stereo not drawn) , please. > 100 µM

Same lookup for COC(C(=O)NN)c1ccccc1 (stereo not drawn) , please. > 100 µM

====

Provide the reported TGI of each item.
- Test system: CAKI-1 renal
- assayExplanation: NCI tumour cell line growth inhibition, 48 h

Form field: reported TGI of C[N+](C)(C)c1ccc(C(N)C(=O)O)cc1 (stereo unspecified) > 100 µM

Same lookup for `COc1cccc(-c2c[nH]c3c(N/N=C/c4ccncc4)ncnc23)c1` , please. > 25 µM

Same lookup for Cc1csc(NC23CC4CC(CC(C4)C2)C3)[n+]1C(P(=O)([O-])O)P(=O)(O)O (stereo unspecified) , please. > 100 µM

Same lookup for `C/C(O)=C(/C=N/C(=S)Nc1ccc(S(N)(=O)=O)cc1)C(=O)Nc1ccccc1C` , please. > 100 µM

Same lookup for `CC1(C)N/C(=C\C=O)C(C)(C)N1O` , please. > 100 µM

Same lookup for COc1ccc2c(c1)NC1=C(C(=O)OC1)C2c1cc(OC)c2c(c1)OCO2 (stereo unspecified) , please. > 100 µM
